# Target system: GST-CIB1 : F-scrambled peptide (Homo sapiens)
# Construct: made in house; host or cells: BL-21 plus RIL cells (E. coli)
# Sequence (Q99828 whole entry): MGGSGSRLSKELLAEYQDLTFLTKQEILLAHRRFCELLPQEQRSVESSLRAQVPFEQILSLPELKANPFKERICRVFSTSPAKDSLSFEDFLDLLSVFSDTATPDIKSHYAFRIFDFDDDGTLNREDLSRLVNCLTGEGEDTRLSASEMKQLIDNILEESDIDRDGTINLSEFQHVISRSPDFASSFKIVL
# Assay: FP scrambled-peptide counter screen, 1536-well format
# Assay type: binding
# Test parameters: scrambled-peptide counterscreen, qHTS curve class
Catalogue of compounds with associated COUNTERSCREEN Curve Class

>  <Compound>
COC(=O)c1ccc2c(c1)S(=O)(=O)N=C2Sc1cc(C)ccc1C

>  <COUNTERSCREEN Curve Class>
4

$$$$
>  <Compound>
Cc1ccc(S(=O)(=O)Nc2cnccc2C(=O)Nc2nc3ccccc3s2)cc1.O=C(O)C(F)(F)F

>  <COUNTERSCREEN Curve Class>
4

$$$$
>  <Compound>
O=C(c1cccs1)c1no[n+]([O-])c1C(=O)c1cccs1

>  <COUNTERSCREEN Curve Class>
-1.4

$$$$
>  <Compound>
COc1cccc(-c2csc(NC(=O)c3ccncc3NS(=O)(=O)c3ccc(C)cc3)n2)c1

>  <COUNTERSCREEN Curve Class>
-3

$$$$
>  <Compound>
Nc1c(Cc2ccc(S(N)(=O)=O)cc2)c(-c2cccc(-c3ccccc3)c2)nn1-c1nc(C(=O)O)cs1.O=C(O)C(F)(F)F

>  <COUNTERSCREEN Curve Class>
4

$$$$
>  <Compound>
O=C(O)C(F)(F)F.OCc1ccc(-c2ccc3ncnc(NCc4cccs4)c3c2)o1

>  <COUNTERSCREEN Curve Class>
4

$$$$
>  <Compound>
Cc1cc(=O)oc2cc(SC3=NS(=O)(=O)c4ccccc43)ccc12

>  <COUNTERSCREEN Curve Class>
3

$$$$
>  <Compound>
O=c1[nH]sc2cc(Cl)ccc12 [NCGC00262908-01, ticlatone, reference compound]

>  <COUNTERSCREEN Curve Class>
4

$$$$

Values were extracted from paper PMC11249646.
